Assay: Cytotoxicity against human HepG2 cells
Type: toxicity, cell-based
PROPERTY_LABEL: CC50 (µM)
The answer is to be given in µM; state only the numeric part.

Field CC50 (entry O=C1CCC(N2C(=O)c3cccc(NCCCCCn4cc(CN5CCN(CCCn6cc(C7=C(c8c[nH]c9ccccc89)C(=O)NC7=O)c7ccccc76)CC5)nn4)c3C2=O)C(=O)N1 (configuration not stated) ) reads 9.05

Field CC50 (entry CC(=O)c1c(C)c2cnc(Nc3ccc(N4CCNCC4)cn3)nc2n(C2CCCC2)c1=O ) reads 8.12

----------
Assign DC50 to each entry below.
Target: Protein cereblon/Cyclin-dependent kinase 5 (Homo sapiens, UniProt Q00535+Q96SW2)
Sequence (Q00535 whole entry): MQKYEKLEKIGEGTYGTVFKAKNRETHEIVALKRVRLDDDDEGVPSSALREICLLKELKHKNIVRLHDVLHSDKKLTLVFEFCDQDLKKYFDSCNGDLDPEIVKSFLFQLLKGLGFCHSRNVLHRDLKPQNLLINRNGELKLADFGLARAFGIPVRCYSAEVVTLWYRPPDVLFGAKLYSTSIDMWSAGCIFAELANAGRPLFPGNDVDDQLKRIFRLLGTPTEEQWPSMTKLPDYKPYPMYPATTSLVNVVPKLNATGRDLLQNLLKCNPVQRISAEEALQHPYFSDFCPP
Sequence (Q96SW2 whole entry): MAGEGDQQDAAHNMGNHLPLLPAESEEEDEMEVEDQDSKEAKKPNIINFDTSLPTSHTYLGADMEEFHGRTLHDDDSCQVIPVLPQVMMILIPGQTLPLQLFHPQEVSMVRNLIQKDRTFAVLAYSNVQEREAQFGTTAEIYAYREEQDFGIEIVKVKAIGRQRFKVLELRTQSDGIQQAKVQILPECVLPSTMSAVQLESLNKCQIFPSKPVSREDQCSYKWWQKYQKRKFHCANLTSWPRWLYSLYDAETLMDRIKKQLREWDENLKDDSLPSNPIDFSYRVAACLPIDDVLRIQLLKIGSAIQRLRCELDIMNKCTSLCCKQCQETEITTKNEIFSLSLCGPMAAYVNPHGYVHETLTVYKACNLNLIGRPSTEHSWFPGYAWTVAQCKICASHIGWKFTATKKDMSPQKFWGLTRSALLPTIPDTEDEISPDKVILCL
Experiment: PROTAC activity at CRBN/CDK5 in human PANC-1 cells assessed as induction of CDK5 degradation by target engagement binding based cell-ELISA
The answer is to be given in µM; state only the numeric part.

Field DC50 (entry O=C1CCC(N2C(=O)c3cccc(NCC(=O)N4CCC(C(=O)N5CCN(CCCn6cc(C7=C(c8c[nH]c9ccccc89)C(=O)NC7=O)c7ccccc76)CC5)CC4)c3C2=O)C(=O)N1 (stereo not drawn) ) reads 0.321

Field DC50 (entry O=C1CCC(N2C(=O)c3cccc(NCCOCCOCCOCC(=O)N4CCC(NC(=O)c5c[nH]nc5NC(=O)c5c(Cl)cccc5Cl)CC4)c3C2=O)C(=O)N1 (stereo not drawn) ) reads 0.036

Field DC50 (entry O=C1CCC(N2C(=O)c3ccc(N4CCN(CCOCCC(=O)N5CCC(NC(=O)c6c[nH]nc6NC(=O)c6c(Cl)cccc6Cl)CC5)CC4)cc3C2=O)C(=O)N1 (stereo not drawn) ) reads 0.032

Field DC50 (entry O=C1CCC(N2C(=O)c3cccc(NCCOCCOCCOCCOCCOCn4cc(CN5CCN(CCCn6cc(C7=C(c8c[nH]c9ccccc89)C(=O)NC7=O)c7ccccc76)CC5)nn4)c3C2=O)C(=O)N1 (stereo not drawn) ) reads 0.33

Field DC50 (entry O=C1CCC(N2C(=O)c3cccc(NCCOCCOCCOCC(=O)N4CCN(CCCn5cc(C6=C(c7c[nH]c8ccccc78)C(=O)NC6=O)c6ccccc65)CC4)c3C2=O)C(=O)N1 (stereo not drawn) ) reads 0.21

Field DC50 (entry O=C1CCC(N2C(=O)c3ccc(N4CCN(CCOCCC(=O)N5CCN(CCCn6cc(C7=C(c8c[nH]c9ccccc89)C(=O)NC7=O)c7ccccc76)CC5)CC4)cc3C2=O)C(=O)N1 (stereo not drawn) ) reads 0.052

Field DC50 (entry CN(CCC(=O)N1CCC(NC(=O)c2c[nH]nc2NC(=O)c2c(Cl)cccc2Cl)CC1)C(=O)CNc1cccc2c1C(=O)N(C1CCC(=O)NC1=O)C2=O (stereo not drawn) ) reads 0.045

Field DC50 (entry O=C1CCC(N2C(=O)c3cccc(NCCCCCn4cc(CN5CCN(CCCn6cc(C7=C(c8c[nH]c9ccccc89)C(=O)NC7=O)c7ccccc76)CC5)nn4)c3C2=O)C(=O)N1 (stereo not drawn) ) reads 0.048

----------
Assay: Bioavailability in mouse at 5 mg/kg, […]
Type: ADME, organism-based
Details: in vivo
PROPERTY_LABEL: bioavailability (%)
The answer is to be given in %; state only the numeric part.

Field bioavailability (entry O=C1CCC(N2C(=O)c3cccc(NCCCCCn4cc(CN5CCN(CCCn6cc(C7=C(c8c[nH]c9ccccc89)C(=O)NC7=O)c7ccccc76)CC5)nn4)c3C2=O)C(=O)N1 (stereo unspecified) ) reads 35
